B1: REST corepressor 3, residues 87 to 134; numbered along this chain, Q9P2K3 (parent)
chain: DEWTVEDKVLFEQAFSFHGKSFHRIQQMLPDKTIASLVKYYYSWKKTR

# Variants of: B1
# procedure_details: abundance fitness (aPCA) (normalised: wild type 0, dead -1); higher = more abundant; growth selection in yeast, the domain comes from the species named
# test_context: Homo sapiens
Where abundance fitness equals or exceeds -0.2, the correct label is met; where it does not, the label is not met.

Problem: Does the reported abundance fitness for `Y42P` fall at or above the -0.2 mark?
Solution: not met

Problem: Does the reported abundance fitness for `H18W` fall at or above the -0.2 mark?
Solution: not met

Problem: Does the reported abundance fitness for `F17C` fall at or above the -0.2 mark?
Solution: not met

Problem: Does the reported abundance fitness for `W3G` fall at or above the -0.2 mark?
Solution: not met

Problem: Does the reported abundance fitness for `W44F` fall at or above the -0.2 mark?
Solution: met

Problem: Does the reported abundance fitness for `K39R` fall at or above the -0.2 mark?
Solution: not met

Problem: Does the reported abundance fitness for `E12I` fall at or above the -0.2 mark?
Solution: not met

Problem: Does the reported abundance fitness for `W3M` fall at or above the -0.2 mark?
Solution: not met

Problem: Does the reported abundance fitness for `L10K` fall at or above the -0.2 mark?
Solution: met

Problem: Does the reported abundance fitness for `K20V` fall at or above the -0.2 mark?
Solution: not met
